test.system: SmAlkD2 (Streptococcus mutans Clarke (ATCC 25175))
Sequence: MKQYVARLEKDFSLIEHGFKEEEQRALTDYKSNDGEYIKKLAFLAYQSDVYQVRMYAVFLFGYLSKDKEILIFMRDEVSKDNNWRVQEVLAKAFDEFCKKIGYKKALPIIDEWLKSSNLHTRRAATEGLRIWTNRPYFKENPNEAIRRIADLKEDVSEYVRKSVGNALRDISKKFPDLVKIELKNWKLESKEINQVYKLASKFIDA
protocol.details: EMSA
condition.info: G13•T13 mismatch; EMSA: 100 pM 32P-DNA, 0-50 uM protein, 20 mM Tris-HCl pH 7.5, 100 mM NaCl, 5% glycerol, 2 mM DTT, 0.1 mM EDTA, 0.1 mg/mL BSA, 20 C, 30 min; 5% native gel
measured.endpoint: pKd
Scale note: pKd = -log10(concentration in M).

Query block: Would you mind telling me what pKd value was observed for GACCACTACACCGATTCCTTACAAC / GTTGTAAGGAATTGGTGTAGTGGTC [G•T-DNA 25-mer] ?
Result block: 4.28

----------
test.system: BcAlkD (Bacillus cereus)
Sequence: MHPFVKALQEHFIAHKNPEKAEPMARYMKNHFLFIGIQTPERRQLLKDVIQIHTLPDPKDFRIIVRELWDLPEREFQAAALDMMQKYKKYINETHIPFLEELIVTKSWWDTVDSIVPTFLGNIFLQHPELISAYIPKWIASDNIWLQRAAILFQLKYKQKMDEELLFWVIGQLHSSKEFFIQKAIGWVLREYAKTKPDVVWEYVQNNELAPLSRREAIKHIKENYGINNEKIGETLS
protocol.details: EMSA
condition.info: EMSA: 100 pM 32P-DNA, 0-50 uM protein, 20 mM Tris-HCl pH 7.5, 100 mM NaCl, 5% glycerol, 2 mM DTT, 0.1 mM EDTA, 0.1 mg/mL BSA, 20 C, 30 min; 5% native gel
measured.endpoint: Kd
Reply with the number, then its unit.

Query block: Write down the reported Kd of GACCACTACACCGATTCCTTACAAC (double strand) [G•C-DNA 25-mer] , test system: BcAlkD (Bacillus cereus).
Result block: 19 µM
